The reported measurements were obtained from patent US20140179664A1.

Target: JAK3 (Homo sapiens, UniProt P52333)
Construct: endogenous in cells
Sequence (P52333 whole entry): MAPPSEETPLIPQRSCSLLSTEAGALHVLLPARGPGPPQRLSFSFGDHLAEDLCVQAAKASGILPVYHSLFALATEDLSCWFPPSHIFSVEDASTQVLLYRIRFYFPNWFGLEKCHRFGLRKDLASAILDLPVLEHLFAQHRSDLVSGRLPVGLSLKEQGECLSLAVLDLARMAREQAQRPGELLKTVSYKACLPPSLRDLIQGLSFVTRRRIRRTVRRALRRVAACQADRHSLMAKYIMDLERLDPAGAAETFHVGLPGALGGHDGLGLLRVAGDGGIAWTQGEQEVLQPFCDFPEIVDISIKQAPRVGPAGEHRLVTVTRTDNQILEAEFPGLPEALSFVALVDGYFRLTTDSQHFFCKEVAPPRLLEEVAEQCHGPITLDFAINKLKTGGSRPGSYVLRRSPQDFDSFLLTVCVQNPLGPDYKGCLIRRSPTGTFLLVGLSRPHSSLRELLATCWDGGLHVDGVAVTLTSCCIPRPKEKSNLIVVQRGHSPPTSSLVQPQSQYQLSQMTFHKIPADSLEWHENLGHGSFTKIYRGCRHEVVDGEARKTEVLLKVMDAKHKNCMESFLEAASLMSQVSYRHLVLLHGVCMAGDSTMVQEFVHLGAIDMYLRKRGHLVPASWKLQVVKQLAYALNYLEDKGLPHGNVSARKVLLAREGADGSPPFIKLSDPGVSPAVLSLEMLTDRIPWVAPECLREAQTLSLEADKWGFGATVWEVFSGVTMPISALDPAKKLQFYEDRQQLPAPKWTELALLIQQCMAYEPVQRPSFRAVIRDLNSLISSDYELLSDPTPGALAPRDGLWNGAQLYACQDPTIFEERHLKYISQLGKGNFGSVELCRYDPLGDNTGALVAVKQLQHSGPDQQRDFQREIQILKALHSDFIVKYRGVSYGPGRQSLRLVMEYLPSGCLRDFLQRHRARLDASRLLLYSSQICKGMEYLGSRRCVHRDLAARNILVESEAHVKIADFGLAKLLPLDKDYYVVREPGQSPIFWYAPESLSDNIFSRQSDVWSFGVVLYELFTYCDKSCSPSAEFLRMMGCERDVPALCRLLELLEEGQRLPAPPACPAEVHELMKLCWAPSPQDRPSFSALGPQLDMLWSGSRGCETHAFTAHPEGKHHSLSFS
Experiment: Kinobeads assay, JAK3
Settings: mixed Molt4/Ramos lysate, read-out: Inhibition values (IC50) JAK3
endpoint-name: IC50

Known results for compounds:
OCCn1cc(Nc2ncc(Cl)c(N[C@H](CO)c3ccccc3F)n2)cn1	< 100 nM
Cn1cc(Nc2ncc(Cl)c(NC(CO)c3ccccc3F)n2)cn1 (centres unmarked)	< 100 nM
CNC(=O)Cn1cc(Nc2ncc(Cl)c(NC(CO)c3ccccc3C(F)(F)F)n2)cn1 (centres unmarked)	100 to 1000 nM
OCCn1ccc(Nc2ncc(Cl)c(NC(CO)c3c(F)cccc3F)n2)n1 (centres unmarked)	100 to 1000 nM
CC(C)OC(=O)Cn1cc(Nc2ncc(Cl)c(N[C@H](CO)c3ccccc3)n2)cn1	< 100 nM
NC(=O)Cn1cc(Nc2ncc(Cl)c(N[C@H](CO)c3cccc(F)c3)n2)cn1	< 100 nM
Cn1cc(Nc2ncc(Cl)c(NC(CO)c3cc(F)ccc3F)n2)cn1 (centres unmarked)	< 100 nM

Fill in the recorded IC50 for this compound, with JAK3 (Homo sapiens, UniProt P52333) as test system: CNC(=O)Cn1cc(Nc2ncc(F)c(N[C@H](CO)c3cc(F)ccc3F)n2)cn1
< 100 nM
